These measurements were taken from a melting point compilation (Tetko et al.; mined from patent text by program, amines drawn as free bases though some values may be those of a salt).

Entries and their measured melting point follow.

molecule	melting point
CC1Cc2cc(F)ccc2C1=Cc1ccc(S(C)(=O)=O)cc1 (stereo unspecified)	177 °C
O=C(O)c1cnc2c3ccccc3ccn2c1=O	219 to 231 °C
O=C1c2ccccc2C(=O)N1OCc1cn(C(c2ccccc2)(c2ccccc2)c2ccccc2)cn1	155 to 157 °C

Using known records, supply melting point for CCCCCCCCCCCCCCc1ccc(N(CC(=O)OC)CC(=O)OC)cc1 160 to 165 °C

Using known records, supply melting point for Cc1cccc(-c2nc(CCOc3ccc(C=CC=C4OC(=O)NC4=O)cc3)c(C)o2)c1 213 to 214 °C

Using known records, supply melting point for C=C(Br)Cc1c(O)ccc2c(C)cc(=O)oc12 201 to 202 °C

----------
Entries and their measured melting point follow.

Use these answered entries as a reference point.
compound	value.type	value.reported
NC(=S)C=Cc1ccc(SC(F)(F)F)cc1	melting point	143 to 144 °C
CC(C)(CCCCOCCCCc1ccc(N2CCOCC2)cc1)NCC(O)c1ccc(O)c(NS(C)(=O)=O)c1 (stereo not drawn)	melting point	165 to 167 °C
Cc1c(-c2ccncc2)oc2c1C(=O)CCC2	melting point	136 to 138 °C

Using known records, supply melting point for Cc1ccc(C(=O)N2CCc3cc(S(=O)(=O)N4CC(c5ccccc5)NC4=O)ccc32)cc1 (stereo not drawn) 125 °C

Using known records, supply melting point for CC(C)c1ccc(NC(=N)c2cccc(NC(=O)C=Cc3ccccc3Cl)c2)cc1 112 to 118 °C

Using known records, supply melting point for CCCNc1ccc(C(=O)N2CCCC(CC(=O)NC(C)C)c3ccccc32)c(Cl)c1 (stereo not drawn) 140 to 143 °C

----------
value.type: melting point (°C)
Hi! Could you send only the number? It should be in °C, unit omitted.

compound	melting point [°C]
COc1ccc(C(=O)CC(=O)C(F)(F)C(F)(F)F)cc1OC	72
Cc1nc(OCc2cccc(C(F)(F)F)c2)c(C(=O)Nc2ccccc2)s1	113

Now consider the entry below.
Using known records, supply melting point for CC(C)(C)OC(=O)NC1N=C(c2ccccc2F)c2ccccc2N(CCO)C1=O (racemic) 200

----------
value.type: melting point

N#Cc1ncccc1COc1cccc(F)c1 52 to 53 °C
CCOC(=O)c1cccc(NC(=O)C=Cc2cc(C(C)C)c(C(C)C)o2)c1 160 to 161 °C
Oc1ccc(-c2c3ccccc3cc3oc4ccccc4c23)c(O)c1 201 to 202 °C
O=C(Nc1nc(CN2CCC(c3c[nH]c4ccccc34)CC2)cs1)C(F)(F)F 244 to 247 °C
COC(COc1cc(-n2ncc(C(F)(F)F)c(C)c2=O)c(F)cc1Cl)OC 86 °C

Now consider the entry below.
Using known records, supply melting point for C#CC1(O)CCN(CC=C(c2ccccc2)c2ccccc2)CC1 122 to 123 °C

----------
value.type: melting point

Use these answered entries as a reference point.
molecule	melting point
CC(C)=CCCC(C)CCS(=O)c1nc2ccccc2[nH]1 (single isomer, unassigned; (+))	122 to 124 °C
FC(F)(c1ccccc1)c1nc(-c2ccncc2)cs1	54.5 to 55.5 °C
CCCCCCCCCCNC(=O)c1cc(NCC(=O)OC)cc(C(=O)NCCCCCCCCCC)c1	108 to 109 °C
C#CCc1cc(C(O)=S)cc(N)c1Oc1ccccc1	167 to 168 °C
NC1=Nc2ccc(-c3cccc(Cl)c3)cc2C12CCCCC2	118 to 120 °C

Now consider the entry below.
Using known records, supply melting point for COC(=O)COc1cc2c(c3c1c(C(=O)C(N)=O)c(C)n3Cc1ccccc1)CCCC2 115 to 125 °C
